target: recombinant cynomolgus Aggrecan G1-IGD-G2 (cynomolgus); assay: ELISA on recombinant G1-IGD-G2
Provide the reported pEC50 of each item.
Please note pEC50 is a logarithmic value: minus log10 of concentration in mol/L. Answer with that number alone.

Query: Answer with the recorded pEC50 for the binder listed here: C01010109 (ALB26-608A05-608A05) (VHH, not shown: small tags and cut ends) VHH 1: DVQLVESGGGLVQPGGSLRLSCAASGRTFSTYTMGWFRQAPGKEREFVAAISWSGGTTYYADSVKGRFTISRDNSKNTVYLQMNSLRPEDTAVYYCAARPRYYYYSLYSYDYWGQGTLVTVSS VHH 2: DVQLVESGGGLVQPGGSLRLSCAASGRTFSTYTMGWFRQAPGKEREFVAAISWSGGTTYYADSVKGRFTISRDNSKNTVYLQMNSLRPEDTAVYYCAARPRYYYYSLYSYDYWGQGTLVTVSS
Reply: 10.04

Query: Answer with the recorded pEC50 for the binder listed here: C01010113 (ALB26-606A07-606A07) (VHH, not shown: small tags and cut ends) VHH 1: DVQLVESGGGLVQPGGSLRLSCVASGRTFSIYGMGWFRQAPGKEREFVAAINGGSRTYYADSVKGRFTISRDNSKNTVYLQMNSLRPEDTAVYYCAADRSGYGTSLDWWYDYWGQGTLVTVSS VHH 2: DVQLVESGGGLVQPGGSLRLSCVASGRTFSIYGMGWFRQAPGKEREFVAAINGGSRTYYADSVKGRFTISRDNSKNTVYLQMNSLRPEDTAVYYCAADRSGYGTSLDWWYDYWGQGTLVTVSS
Reply: 9.52
